Target: T1, human CC chemokine receptor 1 (human CCR1) (human, UniProt P32246 1-355)
T1 construct: endogenous on THP-1 cells in the migration assays; also called hCCR1; CHO-S-hCCR1 (expressing cells)
T1 sequence: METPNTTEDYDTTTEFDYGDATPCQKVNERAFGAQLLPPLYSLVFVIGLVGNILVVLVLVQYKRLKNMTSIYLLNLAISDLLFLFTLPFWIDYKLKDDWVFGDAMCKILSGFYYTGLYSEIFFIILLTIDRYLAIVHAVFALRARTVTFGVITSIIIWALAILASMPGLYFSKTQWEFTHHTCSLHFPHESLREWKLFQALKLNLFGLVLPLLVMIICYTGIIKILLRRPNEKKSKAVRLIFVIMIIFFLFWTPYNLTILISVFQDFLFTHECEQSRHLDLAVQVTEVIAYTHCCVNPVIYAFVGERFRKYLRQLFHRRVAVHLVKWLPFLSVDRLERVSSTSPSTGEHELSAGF
Experiment: flow cytometry on CHO-S-hCCR1 cells; bound = fluorescence 10 times or more that of isotype control chDNP1
Quantity name: binding result

chKM5908′ mut05 (antibody, V domains shown) VH: QVQLKQSGPGLVQPSQSLSITCTVSGFSLNNYGVHWVRQPPGKGLEWLGVTWSAGTTVYNAAFISRLSISKDDSKSQVFFKMNSLQAGDTAIYYCAKDGSRYYTAMDYWGQGTSVTVSS VL: DVVMTQTPLSLPVSLGDQASIFCRSSQSLVHRNGITFFHWYLQKPGQSPKLLIYKVSNRFSGVPDRFSGSGSGTDFTLKISRVAPDDLGVYFCSQGTHVPPTFGGGTKLEIK : binds
chKM5908′ mut09 (antibody, V domains shown) VH: QVQLKQSGPGLVQPSQSLSITCTVSGFSLNNYGVHWVRQPPGKGLEWLGVIWSAGTTVYNAAFISRLSISKDDSKSQVFFKMNSLQAGDTAIYYCAKDGSRAYTAMDYWGQGTSVTVSS VL: DVVMTQTPLSLPVSLGDQASIFCRSSQSLVHRNGITFFHWYLQKPGQSPKLLIYKVSNRFSGVPDRFSGSGSGTDFTLKISRVAPDDLGVYFCSQGTHVPPTFGGGTKLEIK : binds
chKM5908′ mut19 (antibody, V domains shown) VH: QVQLKQSGPGLVQPSQSLSITCTVSGFSLNNYGVHWVRQPPGKGLEWLGVTWSAGTTAYNAAFASRLSISKDDSKSQVFFKMNSLQAGDTAIYYCAKDGSRYYTAMDYWGQGTSVTVSS VL: DVVMTQTPLSLPVSLGDQASIFCRSSQSLVHRNGITFAHWYLQKPGQSPKLLIYKVSNRFSGVPDRFSGSGSGTDFTLKISRVAPDDLGVYFCSQGTHVPPTFGGGTKLEIK : binds
chKM5908′ mut29 (antibody, V domains shown) VH: QVQLKQSGPGLVQPSQSLSITCTVSGFSLNNYGVHWVRQPPGKGLEWLGVTWSAGTTVYNAAFISRLSISKDDSKSQVFFKMNSLQAGDTAIYYCAKDGSRYYTAMDYWGQGTSVTVSS VL: DVVMTQTPLSLPVSLGDQASIFCRSSQSLVHRNGITFAHWYLQKPGQSPKLLIYKISNRFSGVPDRFSGSGSGTDFTLKISRVAPDDLGVYFCSQGTHVPPTFGGGTKLEIK : binds

We now examine a further binder.
Output measured binding result for this item: chKM5908′ mut27 (antibody, V domains shown) VH: QVQLKQSGPGLVQPSQSLSITCTVSGFSLNNYGVHWVRQPPGKGLEWLGVTWSAGTTAYNAAFASRLSISKDDSKSQVFFKMNSLQAGDTAIYYCAKDGSRYYTAMDYWGQGTSVTVSS VL: DVVMTQTPLSLPVSLGDQASIFCRSSQSLVHRNGITFFHWYLQKPGQSPKLLIYKVSNKFSGVPDRFSGSGSGTDFTLKISRVAPDDLGVYFCSQGTHVPPTFGGGTKLEIK
binds
